Field: IC50. Provide a value for each of the compounds that follow.
tested-system: EGFR del19/T790M/C797S (Homo sapiens, UniProt P00533, C797S/DEL746-750/T790M)
Sequence (P00533 with tags, fused parts or gaps DEL746-750/T790M/C797S): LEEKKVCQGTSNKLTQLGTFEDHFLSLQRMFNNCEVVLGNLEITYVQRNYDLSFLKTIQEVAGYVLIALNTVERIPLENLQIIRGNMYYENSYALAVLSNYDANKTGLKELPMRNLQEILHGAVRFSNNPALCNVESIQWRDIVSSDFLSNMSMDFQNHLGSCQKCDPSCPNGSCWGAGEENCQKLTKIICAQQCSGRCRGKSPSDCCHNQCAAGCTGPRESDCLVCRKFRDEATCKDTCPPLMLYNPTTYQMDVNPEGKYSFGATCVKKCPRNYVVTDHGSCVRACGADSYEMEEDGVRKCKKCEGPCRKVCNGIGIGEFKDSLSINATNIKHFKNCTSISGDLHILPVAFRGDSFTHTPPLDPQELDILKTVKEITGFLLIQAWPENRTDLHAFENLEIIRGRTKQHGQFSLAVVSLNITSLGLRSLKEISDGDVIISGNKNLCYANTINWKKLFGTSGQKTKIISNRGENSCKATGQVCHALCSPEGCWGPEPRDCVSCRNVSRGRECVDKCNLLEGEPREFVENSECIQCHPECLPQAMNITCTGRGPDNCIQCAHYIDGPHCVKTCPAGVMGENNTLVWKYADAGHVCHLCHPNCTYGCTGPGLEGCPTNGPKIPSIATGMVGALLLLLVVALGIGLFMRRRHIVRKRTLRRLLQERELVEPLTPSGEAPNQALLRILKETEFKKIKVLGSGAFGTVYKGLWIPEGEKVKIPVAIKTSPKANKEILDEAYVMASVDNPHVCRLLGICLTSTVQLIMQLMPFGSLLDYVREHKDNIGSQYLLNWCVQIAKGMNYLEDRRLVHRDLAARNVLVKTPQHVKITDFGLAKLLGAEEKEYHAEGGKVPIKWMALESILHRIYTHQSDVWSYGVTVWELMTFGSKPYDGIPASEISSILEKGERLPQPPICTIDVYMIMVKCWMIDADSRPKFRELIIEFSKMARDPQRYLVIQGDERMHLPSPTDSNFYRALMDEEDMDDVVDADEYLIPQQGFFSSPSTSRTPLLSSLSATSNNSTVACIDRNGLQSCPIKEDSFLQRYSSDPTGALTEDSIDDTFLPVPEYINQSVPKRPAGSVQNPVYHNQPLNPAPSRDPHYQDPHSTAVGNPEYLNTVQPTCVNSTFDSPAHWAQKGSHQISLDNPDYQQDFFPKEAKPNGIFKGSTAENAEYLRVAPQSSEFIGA
procedure-summary: Biochemical EGFR kinase assay (Lance Ultra TR-FRET), triple mutant del19/T790M/C797S
conditions-used: Km ATP; read-out: IC50 del19/T790M/C797S (nM) Km ATP
Output spec: scalar in nM, unitless text.

Lab note: C[C@]1(O)CC[C@@H](Nc2cc(Nc3nc(-c4cnn(S(=O)(=O)C5CC5)c4)ncc3F)ncc2-c2ccn(C(F)F)n2)CC1 [Example 316] gave IC50 of 0.4

Given item CC1(O)CCC(Oc2cc(Nc3ccnc(-c4cnn(S(=O)(=O)C5CC5)c4)n3)ncc2-c2ccn(C(F)F)n2)CC1 (centres unmarked) [Example 68] , the value recorded as its IC50 is 0.5

Input CNC(=O)[C@H]1CC[C@@H](Nc2cc(Nc3ccnc(-c4cnn(S(=O)(=O)C5CC5)c4)n3)ncc2-c2ccn(C(F)F)n2)CC1 [Example 24] . Output IC50: 0.3

Measured IC50, O=S(=O)(C1CC1)n1cc(-c2nccc(Nc3cc(NC4CCN(CC(F)F)CC4)c(-c4ccn(C(F)F)n4)cn3)n2)cn1 [Example 219] : 0.8

Lab book: IC50 of O=S(=O)(C1CC1)n1cc(-c2nccc(Nc3cc(N[C@H]4CC[C@@H](CN5CCC5)CC4)c(-c4ccn(CC(F)F)n4)cn3)n2)cn1 [Example 247] noted as 0.3
